# system under test: C-X-C chemokine receptor type 6 (Homo sapiens) (UniProt O00574)
# Sequence (O00574 whole entry, looked up): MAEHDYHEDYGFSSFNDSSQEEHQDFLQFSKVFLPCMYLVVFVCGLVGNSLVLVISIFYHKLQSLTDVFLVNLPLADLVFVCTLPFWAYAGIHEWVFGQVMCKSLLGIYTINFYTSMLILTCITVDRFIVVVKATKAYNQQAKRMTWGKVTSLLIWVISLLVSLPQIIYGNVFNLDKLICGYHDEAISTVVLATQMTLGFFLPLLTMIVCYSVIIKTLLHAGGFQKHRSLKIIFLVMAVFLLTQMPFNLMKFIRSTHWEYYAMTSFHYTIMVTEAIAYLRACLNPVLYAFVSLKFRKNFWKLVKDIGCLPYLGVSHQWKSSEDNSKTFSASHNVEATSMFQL
# protocol notes: potency against CXCR6 with APJ panel – cell-based, beta-arrestin, DiscoveRx, uHTS hits, dose response (AID 624129)
# condition context: CXCR6 beta-arrestin (DiscoveRx) antagonist cell assay, CXCR6, run 2, dose range 1
measurement type: IC50 (µM)

> print(dat)
                                    molecule  measure.unit  operator.symbol  numeric.result
 1                    Cc1cc(C)c2ccc(N)nc2c1O            µM                >              80
 2  O=C1CN(C(=O)CSc2nc3cc(Cl)ccc3c(=O)n2Cc2ccccc2)c2ccccc2N1            µM                >              80
 3  O=C(Cn1sc2ccccc2c1=O)NC12CC3CC(CC(C3)C1)C2            µM                =            2.16
 4                   O=C(C#Cc1ccccc1)c1ccco1            µM                =            9.18
 5  CS(=O)(=O)c1ccc(C(=O)OCc2nnc(-c3ccccc3)o2)cc1[N+](=O)[O-]            µM                =            3.64
 6  O=c1cc(CSc2ccc(Cl)cc2)nc(-c2ccccn2)[nH]1            µM                =             3.7
 7    CCn1c(=O)c([N+](=O)[O-])c(Cl)c2ccccc21            µM                =            17.8
 8  COc1ccc(NC(=O)/C(Cl)=C(/Cl)S(=O)(=O)Cc2ccc(C)cc2)cn1            µM                =           0.832
 9  CCC(=O)OCCNc1cc(Sc2nc3ccccc3[nH]2)c2nonc2c1[N+](=O)[O-]            µM                =            6.71
10  C=C1C(=O)C23C(O)C1CCC2C12CCCC(C)(COC(C)=O)C1C(O)C3(O)OC2 (configuration not stated)            µM                =            6.24
11  CC(=O)OCCCNc1cc(Sc2nc3ccccc3s2)c2nonc2c1[N+](=O)[O-]            µM                >              80
12         CCc1cc2c(=O)[nH]c(-c3ccccn3)nc2s1            µM                =            1.74

====

# system under test: Apelin receptor (Homo sapiens)
# protocol notes: potency against CXCR6 with APJ panel – cell-based, beta-arrestin, DiscoveRx, uHTS hits, dose response (AID 624129)
# condition context: CXCR6 beta-arrestin (DiscoveRx) antagonist cell assay, APJ, dose range 1, mean IC50 across replicates
A collection of compounds and their measured log10 IC50
measurement type: log10 IC50 (log10 of the value in µM)

> print(dat)
                                    compound  numeric.result
 1  Cc1c(Nc2cc(Cl)c3nonc3c2[N+](=O)[O-])c(=O)n(-c2ccccc2)n1C            0.63
 2                   Oc1c(Cl)cc(Cl)c2cccnc12            0.58
 3  CCOC(=O)c1c(C)oc2c1c(C=NCc1ccccn1)c(O)c1ccccc12            1.09
 4          CC(=O)Nc1ccc(NCC(=O)c2ccccc2)cc1            1.42
 5  Cc1cc(C)c2c(=O)n(CC(=O)Nc3cccc(Cl)c3C)sc2n1            0.49
 6  COc1cc(/C=C/c2ccc3cccc(O)c3n2)cc(OC)c1OC            0.71
 7  C=CCn1nc([N+](=O)[O-])nc1Sc1cccc2cccnc12            1.69
 8  CS(=O)(=O)c1ccc(C(=O)OCc2nnc(-c3ccccc3)o2)cc1[N+](=O)[O-]            0.59
 9       C/C(=N\NC(=O)Cc1ccc(Cl)cc1)c1ccccn1            1.15
10  CCS(=O)(=O)c1ncc(Cl)c(C(=O)Nc2ccc(S(=O)(=O)N3CCCC(C)C3)cc2)n1 (stereo not drawn)            0.94
11  CC(Oc1cccc(Cl)c1)C(=O)Nc1nc(-c2ccccn2)cs1 (stereo not drawn)            0.93
12  O=[N+]([O-])c1ccc(Sc2cccc[n+]2[O-])c2nonc12            1.29
13  CC1(C)CC(=O)C2=C(C1)OC1=C(C(=O)CC(C)(C)C1)C2c1ccc(O)cc1O            1.03
14  N#CC(C#N)=C1C=CC=CN1/C(=C\c1ccco1)C(=O)c1ccc(Cl)cc1            1.51
15  Cc1ccc(S(=O)(=O)c2ccc([N+](=O)[O-])o2)cc1            1.04
16  COC(=O)C1=C(c2ccc(-c3ccccc3)c(F)c2)C[C@@H]2CC[C@H]1N2C(=O)N1CCC(C)CC1            1.04
17  Cc1cc(S(=O)(=O)c2ccc(Cl)cc2)nc(S(=O)(=O)c2ccc(Cl)cc2)c1C#N            1.57
18  O=[N+]([O-])c1cc2oc3c(c2c(C=NCc2ccccc2)c1O)CCCC3            1.41
19         C/C(=N\NC(=O)c1ccc(F)cc1)c1ccccn1            0.00
20              O=C(CSc1cccc2cccnc12)N1CCCC1            0.73
21  CC(=O)OCCNc1cc(Sc2nc3ccccc3[nH]2)c2nonc2c1[N+](=O)[O-]            0.91
22  CNc1ccc2oc(C[C@H]3O[C@@]4(CC[C@H]3C)O[C@H]([C@H](C)C(=O)c3ccc[nH]3)[C@H](C)C[C@H]4C)nc2c1C(=O)O            1.07
23  CCCOc1cccc(-c2cc(C(=O)N/N=C/c3ccccn3)c3ccccc3n2)c1            0.87
24  CCCC(=O)OCCNc1cc(Sc2nc3ccccc3[nH]2)c2nonc2c1[N+](=O)[O-]            0.98
25  CC(=O)OC1C2(CC3N4C(=O)C5(CO)SSC4(CC31O)C(=O)N5C)OC(C)C(C)(C)C2=O (stereo not drawn)            0.09
26  CN(C)S(=O)(=O)c1cccc(NC(=O)CSc2cccc3cccnc23)c1            1.68
27  CCOc1ccccc1NC(=O)c1nc(S(=O)(=O)Cc2ccccc2)ncc1Cl            1.13
28            Nc1cc(Cl)c2nonc2c1[N+](=O)[O-]            1.31
29  O=C(OCn1ncc(Cl)c(Cl)c1=O)c1cccc(C(F)(F)F)c1            1.50
30  CCC(=O)OCCNc1cc(Sc2nc3ccccc3s2)c2nonc2c1[N+](=O)[O-]            1.45

====

Here the recorded inhibition is given for each entry.
# system under test: C-X-C chemokine receptor type 6 (Homo sapiens)
# protocol notes: potency against CXCR6 with APJ panel – cell-based, beta-arrestin, DiscoveRx, uHTS hits, dose response (AID 624129)
# condition context: CXCR6 beta-arrestin (DiscoveRx) antagonist cell assay, CXCR6, run 1, dose range 2, at 80 µM (top of the series)
measurement type: inhibition

> print(dat)
                                   compound  measurement.type  result
1  O=C(Cn1sc2ccccc2c1=O)NC12CC3CC(CC(C3)C1)C2        inhibition   70.8%
2  CS(=O)(=O)c1sc(C#N)c2c1C(=O)CC(c1ccccc1)C2 (stereo not given)        inhibition   73.2%
3  O=C(Nc1cccc(C(F)(F)F)c1)Oc1ccc(Cl)c2cccnc12        inhibition   53.2%
4  O=C1C=CC2(O[C@H](c3ccccc3)[C@@H](c3ccccc3)O2)[C@H](Sc2ccccc2O)C1        inhibition    121%
5  N#CC(C#N)=C1C=CC=CN1/C(=C\c1ccco1)C(=O)c1ccc(Br)cc1        inhibition   19.9%
